Target: 20S proteasome extracted from rat liver (PGPH) (Rattus norvegicus, UniProt P28073+Q9JHW0)
Construct: 20S proteasome extracted from rat liver; from tissue; host or cells: rat liver
Test: inhibition of 20S proteasome, PGPH activity (fluorescent peptide)
Format: biochemical
Settings: 20 μM; rat liver 20S proteasome, 37° C., 1 h; read-out: inhibition rates (%) PGPH
endpoint: inhibition at 20 µM (%)
Answers are plain numbers, in %.

>  <compound>
CC(C)C[C@H](NC(=O)N[C@@H](Cc1ccccc1)C(=O)N[C@@H](CC(C)C)C(=O)Nc1cnccn1)B(O)O [Example 12]

>  <inhibition at 20 µM / %>
96.7

$$$$

Fill in inhibition at 20 µM for each of the 2 compounds listed.
1. COc1ccc(NC(=O)[C@H](Cc2ccccc2)NC(=O)N[C@@H](CC(C)C)B(O)O)cc1 [Example 8]
2. CC(C)C[C@H](NC(=O)N[C@@H](Cc1ccccc1)C(=O)NCC1CCCO1)B(O)O (stereo partly shown) [Example 3]

Reply:
1: 63.1; 2: 88.4

Ask: # query: inhibition at 20 µM | item CC(C)C[C@H](NC(=O)N[C@@H](CC(C)C)C(=O)N[C@@H](CC(C)C)C(=O)Nc1cnccn1)B(O)O [Example 11] | system: 20S proteasome extracted from rat liver (PGPH) (Rattus norvegicus, UniProt P28073+Q9JHW0)
Reply: 81
